tested on: Bacillus subtilis; test: Antimicrobial activity against Bacillus subtilis ATCC 6633 assessed as growth inhibition after 24-48 hr by broth microdilution technique; type: functional
Consider the following compounds; for each one, report its MIC.

Completed entries (count: 2):
INSERT INTO assay_data (compound, measured_value) VALUES
  ('COC(C)(CC1O[C@H]2[C@H]3OC(C)(C)O[C@H]3O[C@H]12)OC (stereo partly specified)', '1500 µg/mL'),
  ('COC(C)(CC1O[C@H]2[C@H]3O[C@H](C(Cl)(Cl)Cl)O[C@H]3O[C@H]12)OC (stereo partly specified)', '500 µg/mL');

Quick batch: MIC for everything below.
1. COC(C)(CC1O[C@H]2[C@H]3O[C@@H](C(Cl)(Cl)Cl)O[C@H]3O[C@H]12)OC (stereo partly specified)
2. COC(C)(CC1O[C@@H]2[C@H]3O[C@@H](C(Cl)(Cl)Cl)O[C@H]3O[C@H]12)OC (stereo partly specified)
3. CC(=O)Cc1ccc(C=O)o1

1. 2500 µg/mL
2. 500 µg/mL
3. 500 µg/mL
